This section presents compounds with their documented IC50 values.
target: KDR (Homo sapiens, UniProt P35968); assay: KDR autophosphorylation ELISA in HUVEC cells; assay type: cell-based; set-up: endogenous in cells; host or cells: HUVEC (Lonza #C2519A); conditions: cellular activity, VEGF165-stimulated, phospho-KDR ELISA
Sequence (P35968 20-1356): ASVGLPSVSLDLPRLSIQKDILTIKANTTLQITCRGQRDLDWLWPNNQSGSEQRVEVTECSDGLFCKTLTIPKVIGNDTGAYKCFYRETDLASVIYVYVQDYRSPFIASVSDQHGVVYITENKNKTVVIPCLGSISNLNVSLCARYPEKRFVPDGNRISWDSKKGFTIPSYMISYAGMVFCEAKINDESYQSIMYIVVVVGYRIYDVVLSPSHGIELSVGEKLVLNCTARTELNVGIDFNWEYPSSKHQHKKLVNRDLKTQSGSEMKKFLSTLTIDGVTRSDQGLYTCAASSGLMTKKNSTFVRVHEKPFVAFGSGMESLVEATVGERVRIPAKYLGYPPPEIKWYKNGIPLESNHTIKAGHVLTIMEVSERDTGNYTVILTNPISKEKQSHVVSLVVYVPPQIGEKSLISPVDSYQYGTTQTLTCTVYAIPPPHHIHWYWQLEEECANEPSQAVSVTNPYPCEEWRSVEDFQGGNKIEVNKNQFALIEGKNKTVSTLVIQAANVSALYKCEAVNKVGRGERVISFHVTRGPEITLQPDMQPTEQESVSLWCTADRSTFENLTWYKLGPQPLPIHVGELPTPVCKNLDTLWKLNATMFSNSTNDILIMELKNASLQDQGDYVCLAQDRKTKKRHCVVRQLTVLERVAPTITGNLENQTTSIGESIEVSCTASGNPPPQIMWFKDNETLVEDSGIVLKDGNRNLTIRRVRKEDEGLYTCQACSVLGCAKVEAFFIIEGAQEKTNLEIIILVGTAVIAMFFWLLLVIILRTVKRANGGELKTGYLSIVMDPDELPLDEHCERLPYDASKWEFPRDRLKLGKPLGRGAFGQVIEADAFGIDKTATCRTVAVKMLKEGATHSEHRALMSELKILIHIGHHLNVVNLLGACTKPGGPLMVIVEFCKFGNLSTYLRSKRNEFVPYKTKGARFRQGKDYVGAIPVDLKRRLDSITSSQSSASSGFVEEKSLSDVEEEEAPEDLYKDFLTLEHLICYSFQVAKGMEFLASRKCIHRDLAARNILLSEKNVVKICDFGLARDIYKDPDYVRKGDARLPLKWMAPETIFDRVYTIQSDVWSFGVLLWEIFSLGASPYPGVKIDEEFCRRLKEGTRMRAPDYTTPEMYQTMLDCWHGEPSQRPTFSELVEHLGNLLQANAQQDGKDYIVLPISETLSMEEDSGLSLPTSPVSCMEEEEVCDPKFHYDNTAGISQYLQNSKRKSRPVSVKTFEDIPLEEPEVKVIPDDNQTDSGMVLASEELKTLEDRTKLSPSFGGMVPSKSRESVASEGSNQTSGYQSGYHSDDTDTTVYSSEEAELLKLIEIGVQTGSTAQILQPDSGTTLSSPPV

Worked cases, IC50 given:
{"smiles repr": "Cn1ccnc1-c1ccc2c(Oc3ccc(NC(=O)C4(C(=O)Nc5ccc(F)cc5)CC4)cc3)ccnc2c1", "IC50": "10 to 100 nM"}
{"smiles repr": "Cc1cc(-c2ccc3c(Oc4ccc(NC(=O)C5(C(=O)Nc6ccc(F)cc6)CC5)cc4)ccnc3c2)ccn1", "IC50": "10 to 100 nM"}
{"smiles repr": "CC(=O)N1CCC(n2cc(-c3ccc4c(Oc5ccc(NC(=O)C6(C(=O)Nc7ccc(F)cc7)CC6)cc5)ccnc4c3)cn2)CC1", "IC50": "≤ 10 nM"}
{"smiles repr": "Cn1cnc(-c2ccc3c(Oc4ccc(NC(=O)C5(C(=O)Nc6ccc(F)cc6)CC5)cc4)ccnc3c2)c1", "IC50": "≤ 10 nM"}
{"smiles repr": "Nc1ccc(-c2ccc3c(Oc4ccc(NC(=O)C5(C(=O)Nc6ccc(F)cc6)CC5)cc4)ccnc3c2)cn1", "IC50": "10 to 100 nM"}

Provide only the value of recorded IC50 for `CN1CCN(c2cc(-c3ccc4c(Oc5ccc(NC(=O)C6(C(=O)Nc7ccc(F)cc7)CC6)cc5)ccnc4c3)ccn2)CC1`
10 to 100 nM

Provide only the value of recorded IC50 for `Cn1nccc1-c1ccc2c(Oc3ccc(NC(=O)C4(C(=O)Nc5ccc(F)cc5)CC4)cc3)ccnc2c1`
10 to 100 nM

---

target: Mer (Homo sapiens); assay: Mer autophosphorylation ELISA in transient transfected 293A cells; conditions: cellular activity; MERTK-transfected 293A cells, phospho-Mer ELISA
Sequence (Q12866 21-999): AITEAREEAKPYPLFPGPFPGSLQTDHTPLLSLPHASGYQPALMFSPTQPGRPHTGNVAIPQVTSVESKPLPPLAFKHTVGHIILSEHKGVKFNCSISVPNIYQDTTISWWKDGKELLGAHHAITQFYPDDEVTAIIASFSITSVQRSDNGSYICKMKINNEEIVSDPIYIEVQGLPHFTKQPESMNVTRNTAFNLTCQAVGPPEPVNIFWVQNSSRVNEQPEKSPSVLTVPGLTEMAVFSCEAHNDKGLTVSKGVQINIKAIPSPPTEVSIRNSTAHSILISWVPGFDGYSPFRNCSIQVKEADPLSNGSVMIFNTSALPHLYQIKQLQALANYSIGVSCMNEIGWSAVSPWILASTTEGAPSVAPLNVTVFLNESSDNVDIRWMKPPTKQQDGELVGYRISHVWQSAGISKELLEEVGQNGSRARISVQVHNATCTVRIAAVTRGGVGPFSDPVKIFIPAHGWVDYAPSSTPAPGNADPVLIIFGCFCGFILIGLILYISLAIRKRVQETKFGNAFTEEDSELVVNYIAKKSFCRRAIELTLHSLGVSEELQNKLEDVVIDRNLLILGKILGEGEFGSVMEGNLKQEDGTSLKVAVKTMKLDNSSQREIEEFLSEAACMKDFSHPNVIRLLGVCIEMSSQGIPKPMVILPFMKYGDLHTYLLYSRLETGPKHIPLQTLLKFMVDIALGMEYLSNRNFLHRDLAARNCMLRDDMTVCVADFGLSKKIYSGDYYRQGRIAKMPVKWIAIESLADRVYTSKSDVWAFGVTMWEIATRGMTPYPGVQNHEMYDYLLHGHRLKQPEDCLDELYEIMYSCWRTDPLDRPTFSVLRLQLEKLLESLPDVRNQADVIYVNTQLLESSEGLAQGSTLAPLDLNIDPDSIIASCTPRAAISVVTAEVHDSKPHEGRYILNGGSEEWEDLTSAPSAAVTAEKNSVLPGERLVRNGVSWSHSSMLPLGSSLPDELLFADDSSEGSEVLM
This section presents compounds with their documented IC50 values.

{"compound": "O=C(Nc1ccc(F)cc1)C1(C(=O)Nc2ccc(Oc3ccnc4cc(-c5cncnc5)ccc34)cc2)CC1", "system": "Mer (Homo sapiens)", "measure": "IC50", "test result": "10 to 100 nM"}

// fetch IC50 for `CNC(=O)c1cc2c(Oc3ccc(NC(=O)C4(C(=O)Nc5ccc(F)cc5)CC4)cc3)ccnc2cc1-c1cnn(C)c1` ; system: Mer (Homo sapiens)
10 to 100 nM

// fetch IC50 for `COc1cc2c(Oc3ccc(NC(=O)C4(C(=O)Nc5ccc(F)cc5)CC4)cc3)ccnc2cc1-c1cnn(C)c1` ; system: Mer (Homo sapiens)
≤ 10 nM

// fetch IC50 for `O=C(Nc1ccc(F)cc1)C1(C(=O)Nc2ccc(Oc3ccnc4cc(-c5ccccn5)ccc34)cc2)CC1` ; system: Mer (Homo sapiens)
10 to 100 nM

// fetch IC50 for `Cc1cc2c(Oc3cc(F)c(NC(=O)C4(C(=O)Nc5ccc(F)cc5)CC4)cc3F)ccnc2cc1-c1cnn(C)c1` ; system: Mer (Homo sapiens)
10 to 100 nM

// fetch IC50 for `Cc1cn(-c2ccc3c(Oc4ccc(NC(=O)C5(C(=O)Nc6ccc(F)cc6)CC5)cc4)ccnc3c2)cn1` ; system: Mer (Homo sapiens)
10 to 100 nM

// fetch IC50 for `N#Cc1cc(-c2ccc3c(Oc4ccc(NC(=O)C5(C(=O)Nc6ccc(F)cc6)CC5)cc4)ccnc3c2)ccn1` ; system: Mer (Homo sapiens)
10 to 100 nM

// fetch IC50 for `CS(=O)(=O)n1cc(-c2ccc3c(Oc4ccc(NC(=O)C5(C(=O)Nc6ccc(F)cc6)CC5)cc4)ccnc3c2)cn1` ; system: Mer (Homo sapiens)
10 to 100 nM

// fetch IC50 for `O=C(Nc1ccc(F)cc1)C1(C(=O)Nc2ccc(Oc3ccnc4cc(-c5nnco5)ccc34)cc2)CC1` ; system: Mer (Homo sapiens)
10 to 100 nM

// fetch IC50 for `O=C(Nc1ccc(F)cc1)C1(C(=O)Nc2ccc(Oc3ccnc4cc(-c5cnn6c5CCC6)ccc34)cc2)CC1` ; system: Mer (Homo sapiens)
10 to 100 nM

// fetch IC50 for `CN1CCC(n2cc(-c3ccc4c(Oc5ccc(NC(=O)C6(C(=O)Nc7ccc(F)cc7)CC6)cc5)ccnc4c3)cn2)CC1` ; system: Mer (Homo sapiens)
≤ 10 nM

// fetch IC50 for `Cc1cc(F)cc(C)c1NC(=O)C1(C(=O)Nc2ccc(Oc3ccnc4cc(-c5cnn(C)c5)ccc34)cc2)CC1` ; system: Mer (Homo sapiens)
10 to 100 nM

// fetch IC50 for CC(=O)N1CCC(c2ccc3c(Oc4ccc(NC(=O)C5(C(=O)Nc6ccc(F)cc6)CC5)cc4)ccnc3c2)C1 (stereo not shown) ; system: Mer (Homo sapiens)
10 to 100 nM

// fetch IC50 for CC1Cc2cc(F)ccc2N1C(=O)C1(C(=O)Nc2ccc(Oc3ccnc4cc(-c5cnn(C)c5)ccc34)cc2)CC1 (stereo not shown) ; system: Mer (Homo sapiens)
> 300 nM

// fetch IC50 for `Cn1cnc(-c2ccc3c(Oc4ccc(NC(=O)C5(C(=O)Nc6ccc(F)cc6)CC5)cc4)ccnc3c2)c1` ; system: Mer (Homo sapiens)
10 to 100 nM

// fetch IC50 for `O=C(Nc1ccc(F)cc1)C1(C(=O)Nc2ccc(Oc3ccnc4cc(-c5ccnc(F)c5)ccc34)cc2)CC1` ; system: Mer (Homo sapiens)
10 to 100 nM

// fetch IC50 for `N#Cc1ccc(-c2ccc3c(Oc4ccc(NC(=O)C5(C(=O)Nc6ccc(F)cc6)CC5)cc4)ccnc3c2)cn1` ; system: Mer (Homo sapiens)
10 to 100 nM

// fetch IC50 for `Cc1cc2c(Oc3ccc(NC(=O)C4(C(=O)Nc5ccc(F)cc5)CC4)cc3)ccnc2cc1-c1cnn(C)c1` ; system: Mer (Homo sapiens)
10 to 100 nM

// fetch IC50 for `O=C(Nc1ccc(F)cc1)C1(C(=O)Nc2ccc(Oc3ccnc4cc(-c5cncs5)ccc34)cc2)CC1` ; system: Mer (Homo sapiens)
10 to 100 nM

// fetch IC50 for `O=C(Nc1ccc(F)cc1)C1(C(=O)Nc2ccc(Oc3ccnc4cc(-c5ccn(C6CC6)n5)ccc34)cc2)CC1` ; system: Mer (Homo sapiens)
100 to 300 nM

---

target: KDR (Homo sapiens); assay: KDR autophosphorylation ELISA in HUVEC cells; assay type: cell-based; parameters: endogenous in cells; host or cells: HUVEC (Lonza #C2519A); conditions: cellular activity, VEGF165-stimulated, phospho-KDR ELISA
measure: IC50

Worked cases, IC50 given:
{"molecule": "N#Cc1cncc(-c2ccc3c(Oc4ccc(NC(=O)C5(C(=O)Nc6ccc(F)cc6)CC5)cc4)ccnc3c2)c1", "measure": "IC50", "test result": "10 to 100 nM"}
{"molecule": "O=C(Nc1ccc(F)cc1)C1(C(=O)Nc2ccc(Oc3ccnc4cc(-c5ccn[nH]5)ccc34)cc2)CC1", "measure": "IC50", "test result": "≤ 10 nM"}
{"molecule": "CS(=O)(=O)N1CCC(c2ccc3c(Oc4ccc(NC(=O)C5(C(=O)Nc6ccc(F)cc6)CC5)cc4)ccnc3c2)C1 (stereo not drawn)", "measure": "IC50", "test result": "> 300 nM"}
{"molecule": "O=C(Nc1ccc(F)cc1)C1(C(=O)Nc2ccc(Oc3ccnc4cc(-c5cncnc5)ccc34)cc2)CC1", "measure": "IC50", "test result": "10 to 100 nM"}
{"molecule": "O=C(Nc1ccc(F)cc1)C1(C(=O)Nc2ccc(Oc3ccnc4cc(-c5ncc[nH]5)ccc34)cc2)CC1", "measure": "IC50", "test result": "≤ 10 nM"}

// fetch IC50 for CC(=O)N1CCC(c2ccc3c(Oc4ccc(NC(=O)C5(C(=O)Nc6ccc(F)cc6)CC5)cc4)ccnc3c2)C1 (stereo not drawn) ; system: KDR (Homo sapiens)
100 to 300 nM

---

Molecular target: AXL (Homo sapiens)
Construct: endogenous in cells
Sequence (P30530 26-894): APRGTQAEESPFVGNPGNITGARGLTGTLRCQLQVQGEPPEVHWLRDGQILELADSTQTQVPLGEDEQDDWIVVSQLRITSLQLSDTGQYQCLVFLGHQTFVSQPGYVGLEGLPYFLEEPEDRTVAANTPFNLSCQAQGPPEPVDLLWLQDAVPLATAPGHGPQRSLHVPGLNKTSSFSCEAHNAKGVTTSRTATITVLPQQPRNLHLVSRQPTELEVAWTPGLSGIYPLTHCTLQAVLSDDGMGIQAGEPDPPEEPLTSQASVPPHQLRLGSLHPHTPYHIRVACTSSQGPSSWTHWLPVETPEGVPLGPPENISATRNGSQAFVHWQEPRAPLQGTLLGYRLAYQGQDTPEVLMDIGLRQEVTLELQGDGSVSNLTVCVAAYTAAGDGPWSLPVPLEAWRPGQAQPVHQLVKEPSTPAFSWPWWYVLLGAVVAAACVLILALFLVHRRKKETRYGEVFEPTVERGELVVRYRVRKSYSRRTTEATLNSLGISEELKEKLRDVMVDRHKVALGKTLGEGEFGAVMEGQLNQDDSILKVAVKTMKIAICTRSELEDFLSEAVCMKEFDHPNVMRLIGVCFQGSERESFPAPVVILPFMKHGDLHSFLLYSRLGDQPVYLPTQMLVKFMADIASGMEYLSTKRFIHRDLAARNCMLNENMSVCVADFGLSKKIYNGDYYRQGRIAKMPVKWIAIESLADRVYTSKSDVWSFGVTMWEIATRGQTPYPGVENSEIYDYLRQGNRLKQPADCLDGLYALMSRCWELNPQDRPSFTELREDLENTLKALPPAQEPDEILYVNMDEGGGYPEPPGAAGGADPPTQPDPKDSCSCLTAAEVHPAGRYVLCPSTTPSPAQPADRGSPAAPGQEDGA
Assay: AXL autophosphorylation ELISA in A-172 cells
Settings: cellular activity, Gas6-stimulated, phospho-AXL ELISA
This section presents molecules with their documented IC50 values.

{"molecule": "CN1CCC(n2cc(-c3ccc4c(Oc5ccc(NC(=O)C6(C(=O)Nc7ccc(F)cc7)CC6)cc5)ccnc4c3)cn2)CC1", "system": "AXL (Homo sapiens)", "IC50": "≤ 10 nM"}

Provide only the value of recorded IC50 for `O=C(Nc1ccc(F)cc1)C1(C(=O)Nc2ccc(Oc3ccnc4cc(-c5ccncc5)ccc34)cc2)CC1`
≤ 10 nM

Provide only the value of recorded IC50 for `Cc1cc2c(Oc3c(F)cc(NC(=O)C4(C(=O)Nc5ccc(F)cc5)CC4)c(F)c3F)ccnc2cc1-c1cnn(C)c1`
10 to 100 nM

Provide only the value of recorded IC50 for O=C(Nc1ccc(F)cc1)C1(C(=O)Nc2ccc(Oc3ccnc4cc(C5CCNC5)ccc34)cc2)CC1 (stereo not shown)
100 to 300 nM

Provide only the value of recorded IC50 for `CC(C)n1cc(-c2ccc3c(Oc4ccc(NC(=O)C5(C(=O)Nc6ccc(F)cc6)CC5)cc4)ccnc3c2)cn1`
≤ 10 nM

Provide only the value of recorded IC50 for `Cc1ccc(-c2ccc3c(Oc4ccc(NC(=O)C5(C(=O)Nc6ccc(F)cc6)CC5)cc4)ccnc3c2)cn1`
100 to 300 nM

Provide only the value of recorded IC50 for `O=C(Nc1ccc(F)cc1)C1(C(=O)Nc2ccc(Oc3ccnc4cc(-c5ncco5)ccc34)cc2)CC1`
10 to 100 nM
